target: IRAK1 (Homo sapiens)
Construct: His-TEV-IRAK1 (194-712); His (N); TEV cleavage site (N)
procedure-text: IRAK1 enzymatic assay (ADP-Glo luminescence)
conditions-used: human recombinant His-TEV-IRAK1 (194-712), ATP 1 μM; read-out: IRAK 1 IC50
pIC50: −log10 of the molar value.
Please go through the items and note down their pIC50.

query: Record request: pIC50 value, item CN1CCCC(c2ccc3c(c2)[nH]/c(=N\C(=O)c2cccc(C(F)F)c2)n3C[C@@](C)(F)CO)C1=O (some centres unmarked)
result: 6.00 to 7.00

query: Can you check CN1CCC(c2ccc3c(c2)[nH]/c(=N\C(=O)c2cccc(C(F)(F)F)c2)n3CCC(O)CO)C1=O (single isomer, unassigned) [Compound 21a] next?
result: 6.00 to 7.00

query: Can you check C=CCCn1/c(=N/C(=O)c2cccc(C(F)(F)F)c2)[nH]c2cc(C3CCN(C)C3=O)ccc21 (centres unmarked) next?
result: 6.00 to 7.00

query: Can you check CC(=O)N1CCCC(c2ccc3c(c2)[nH]/c(=N\C(=O)c2cccc(C(F)(F)F)c2)n3CCCO)C1 (centres unmarked) next?
result: ≥ 7.00

query: Can you check CN1CCC(c2ccc3c(c2)[nH]/c(=N\C(=O)c2cccc(C(F)(F)F)c2)n3CC(O)CO)C1=O (single isomer, unassigned) [Compound 20a] next?
result: 6.00 to 7.00

query: Can you check CN1CCC[C@H](c2ccc3c(c2)[nH]/c(=N\C(=O)c2cccc(C(F)F)c2)n3C[C@](C)(F)CO)C1=O (single isomer, unassigned) next?
result: 6.00 to 7.00

query: Can you check CN1CC(c2ccc3c(c2)nc(NC(=O)c2cccc(C(F)(F)F)c2)n3CCCO)C(C)(C)C1=O (centres unmarked) [Compound 25] next?
result: ≥ 7.00

query: Can you check CN1CCOC(c2ccc3c(c2)nc(NC(=O)c2cccc(C(F)F)c2)n3CC(C)(F)CO)C1=O (centres unmarked) next?
result: 6.00 to 7.00

query: Can you check CN1CCC(c2ccc3c(c2)[nH]/c(=N\C(=O)c2cccc(C(F)(F)F)c2)n3CCC(O)CO)C1=O (centres unmarked) [Compound 21] next?
result: 6.00 to 7.00

query: Can you check CN1CCC[C@@H](c2ccc3c(c2)[nH]/c(=N\C(=O)c2cccc(C(F)F)c2)n3C[C@@](C)(F)CO)C1=O next?
result: ≥ 7.00

query: Can you check CN1CCCC(c2ccc3c(c2)[nH]/c(=N\C(=O)c2cccc(C(F)(F)F)c2)n3CCCO)C1=O (centres unmarked) next?
result: ≥ 7.00

query: Can you check CN1CCC[C@@H](c2ccc3c(c2)[nH]/c(=N\C(=O)c2cccc(C(F)(F)F)c2)n3CCCO)C1=O next?
result: ≥ 7.00

query: Can you check CN1CC(c2ccc3c(c2)[nH]/c(=N\C(=O)c2cccc(C(F)(F)F)c2)n3CCCO)CC1=O (centres unmarked) next?
result: 6.00 to 7.00

query: Can you check CN1CCOC(c2ccc3c(c2)nc(NC(=O)c2cccc(C(F)(F)F)c2)n3CC(C)(F)CO)C1=O (centres unmarked) next?
result: 6.00 to 7.00

====

target: IRAK1 (Homo sapiens)
Construct: His-TEV-IRAK1 (194-712); His (N); TEV cleavage site (N)
procedure-text: IRAK1 enzymatic assay (ADP-Glo luminescence)
conditions-used: human recombinant His-TEV-IRAK1 (194-712), ATP 1 μM; read-out: IRAK 1 IC50
pIC50: −log10 of the molar value.
readout-type: pIC50

query: Record request: pIC50 value, item CN1CCC(c2ccc3c(c2)nc(NC(=O)c2cccc(C(F)F)c2)n3CCCO)C1=O (stereo not shown)
result: 6.00 to 7.00

query: Can you check CN1CC(c2ccc3c(c2)nc(NC(=O)c2cccc(C(F)F)c2)n3CCCO)C(C)(C)C1=O (single isomer, unassigned) [Compound 27a] next?
result: ≥ 7.00

query: Can you check CN1CC(c2ccc3c(c2)nc(NC(=O)c2cccc(C(F)F)c2)n3CCCO)C(C)(C)C1=O (stereo not shown) [Compound 27] next?
result: 6.00 to 7.00

query: Can you check CN1C[C@H](c2ccc3c(c2)nc(NC(=O)c2cccc(C(F)(F)F)c2)n3CCCO)C(C)(C)C1=O [Compound 25b] next?
result: 6.00 to 7.00

query: Can you check CC(=O)N1CCC(c2ccc3c(c2)[nH]/c(=N\C(=O)c2cccc(C(F)(F)F)c2)n3CCCO)CC1 next?
result: ≥ 7.00

query: Can you check CN1CCC(c2ccc3c(c2)nc(NC(=O)c2cccc(C(F)(F)F)c2)n3CCCO)C1=O (single isomer, unassigned) [Compound 23a] next?
result: 6.00 to 7.00

query: Can you check CN1C(=O)CCC1(C)c1ccc2c(c1)nc(NC(=O)c1cccc(C(F)(F)F)c1)n2CCCO (single isomer, unassigned) [Compound 32a] next?
result: 6.00 to 7.00

====

target: IRAK1 (Homo sapiens)
Construct: His-TEV-IRAK1 (194-712); His (N); TEV cleavage site (N)
procedure-text: IRAK1 enzymatic assay (ADP-Glo luminescence)
conditions-used: human recombinant His-TEV-IRAK1 (194-712), ATP 1 μM; read-out: IRAK 1 IC50
readout-type: IC50

query: Record request: IC50 value, item CN1CCC[C@H](c2ccc3c(c2)[nH]/c(=N\C(=O)c2cccc(C(F)F)c2)n3C[C@@](C)(F)CO)C1=O
result: 1000 to 10000 nM

query: Can you check CN1CCC(C)(c2ccc3c(c2)nc(NC(=O)c2cccc(C(F)(F)F)c2)n3CCCO)C1=O (single isomer, unassigned) [Compound 29a] next?
result: 1000 to 10000 nM

query: Can you check CN1CCCC(c2ccc3c(c2)[nH]/c(=N\C(=O)c2cccc(C(F)(F)F)c2)n3CCC(O)CO)C1=O (stereo not shown) [Compound 22] next?
result: 100 to 1000 nM

query: Can you check O=C(/N=c1\[nH]c2cc(C3(O)COC3)ccc2n1CCCO)c1cccc(C(F)(F)F)c1 next?
result: 1000 to 10000 nM

query: Can you check CN1CC(c2ccc3c(c2)nc(NC(=O)c2cccc(C(F)(F)F)c2)n3CCCO)C(C)(C)C1=O (single isomer, unassigned) [Compound 25a] next?
result: ≤ 100 nM

query: Can you check CN1CCC(c2ccc3c(c2)nc(NC(=O)c2cccc(C(F)(F)F)c2)n3CCCO)C1=O (stereo not shown) [Compound 23] next?
result: 100 to 1000 nM

query: Can you check Cc1ccn(C)c(=O)c1-c1ccc2c(c1)[nH]/c(=N\C(=O)c1cccc(C(F)(F)F)c1)n2CCCO next?
result: 100 to 1000 nM

====

Please go through the items and note down their melting point.

query: Record request: melting point value, item CN1CC(c2ccc3c(c2)nc(NC(=O)c2cccc(C(F)(F)F)c2)n3CCCO)C(C)(C)C1=O (centres unmarked)
result: 104 to 106 °C

query: Can you check CN1CCC(C)(c2ccc3c(c2)nc(NC(=O)c2cccc(C(F)F)c2)n3CCCO)C1=O (centres unmarked) next?
result: 78 to 81 °C

query: Can you check CN1CC(c2ccc3c(c2)nc(NC(=O)c2cccc(C(F)F)c2)n3CCCO)C(C)(C)C1=O (centres unmarked) next?
result: 95 to 96 °C

query: Can you check CN1CCC(C)(c2ccc3c(c2)nc(NC(=O)c2cccc(C(F)(F)F)c2)n3CCCO)C1=O (centres unmarked) next?
result: 72 to 74 °C

query: Can you check CN1CCOC(c2ccc3c(c2)nc(NC(=O)c2cccc(C(F)(F)F)c2)n3CC(C)(F)CO)C1=O (centres unmarked) next?
result: 121 to 124 °C

query: Can you check CN1C(=O)CCC1(C)c1ccc2c(c1)nc(NC(=O)c1cccc(C(F)(F)F)c1)n2CCCO (centres unmarked) next?
result: 99 to 100 °C

query: Can you check CN1CCOC(c2ccc3c(c2)nc(NC(=O)c2cccc(C(F)F)c2)n3CC(C)(F)CO)C1=O (centres unmarked) next?
result: 118 to 120 °C

query: Can you check CN1CCC(c2ccc3c(c2)nc(NC(=O)c2cccc(C(F)F)c2)n3CCCO)C1=O (centres unmarked) next?
result: 166 to 168 °C

====

target: IRAK1 (Homo sapiens, UniProt P51617)
Construct: His-TEV-IRAK1 (194-712); His (N); TEV cleavage site (N)
Sequence (P51617 194-712): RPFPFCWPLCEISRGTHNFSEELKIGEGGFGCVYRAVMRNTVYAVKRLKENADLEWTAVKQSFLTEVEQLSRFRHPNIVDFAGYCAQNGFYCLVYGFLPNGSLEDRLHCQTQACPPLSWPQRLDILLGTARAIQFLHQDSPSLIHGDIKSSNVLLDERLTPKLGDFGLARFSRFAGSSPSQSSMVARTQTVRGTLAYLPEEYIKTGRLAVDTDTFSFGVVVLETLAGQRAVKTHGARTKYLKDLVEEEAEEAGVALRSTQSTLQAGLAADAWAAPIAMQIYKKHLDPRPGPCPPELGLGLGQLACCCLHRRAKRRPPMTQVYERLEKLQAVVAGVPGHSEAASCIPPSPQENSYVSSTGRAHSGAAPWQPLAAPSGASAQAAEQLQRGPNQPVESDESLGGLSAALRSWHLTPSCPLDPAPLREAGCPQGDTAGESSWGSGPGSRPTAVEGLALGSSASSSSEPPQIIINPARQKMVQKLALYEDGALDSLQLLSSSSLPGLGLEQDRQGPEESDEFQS
procedure-text: IRAK1 enzymatic assay (ADP-Glo luminescence)
conditions-used: human recombinant His-TEV-IRAK1 (194-712), ATP 1 μM; read-out: IRAK 1 IC50
readout-type: IC50

query: Record request: IC50 value, item CN1CCC(c2ccc3c(c2)[nH]/c(=N\C(=O)c2cccc(C(F)(F)F)c2)n3CCC(O)CO)C1=O (single isomer, unassigned) [Compound 21d]
result: ≤ 100 nM

query: Can you check CC(=O)N1C2CCC1CC(c1ccc3c(c1)[nH]/c(=N\C(=O)c1cccc(C(F)(F)F)c1)n3CCCO)C2 (stereo not shown) next?
result: ≤ 100 nM

query: Can you check CN1CCCC(c2ccc3c(c2)[nH]/c(=N\C(=O)c2cccc(C(F)(F)F)c2)n3CCC(O)CO)C1=O (single isomer, unassigned) [Compound 22b] next?
result: ≤ 100 nM

query: Can you check CN1CC[C@H](c2ccc3c(c2)nc(NC(=O)c2cccc(C(F)(F)F)c2)n3CCCO)C1=O [Compound 23b] next?
result: 100 to 1000 nM

query: Can you check CN1CCC[C@H](c2ccc3c(c2)[nH]/c(=N\C(=O)c2cccc(C(F)(F)F)c2)n3CCCO)C1=O next?
result: 100 to 1000 nM

query: Can you check CN1CCC(c2ccc3c(c2)[nH]/c(=N\C(=O)c2cccc(C(F)(F)F)c2)n3CC(O)CO)C1=O (single isomer, unassigned) [Compound 20b] next?
result: 100 to 1000 nM

query: Can you check CN1C(=O)CCC1(C)c1ccc2c(c1)nc(NC(=O)c1cccc(C(F)(F)F)c1)n2CCCO (stereo not shown) [Compound 32] next?
result: 100 to 1000 nM

query: Can you check CN1CC(c2ccc3c(c2)nc(NC(=O)c2cccc(C(F)F)c2)n3CCCO)C(C)(C)C1=O (single isomer, unassigned) [Compound 27b] next?
result: 100 to 1000 nM

query: Can you check O=C(/N=c1\[nH]c2cc(C3CCCCC3=O)ccc2n1CCCO)c1cccc(C(F)(F)F)c1 (stereo not shown) next?
result: ≤ 100 nM

query: Can you check CN1C(=O)CCC1(C)c1ccc2c(c1)nc(NC(=O)c1cccc(C(F)(F)F)c1)n2CCCO (single isomer, unassigned) [Compound 32b] next?
result: 100 to 1000 nM

query: Can you check C=CCn1/c(=N/C(=O)c2cccc(C(F)(F)F)c2)[nH]c2cc(C3CCN(C)C3=O)ccc21 (stereo not shown) next?
result: 100 to 1000 nM

query: Can you check CN1CCC(C)(c2ccc3c(c2)nc(NC(=O)c2cccc(C(F)(F)F)c2)n3CCCO)C1=O (stereo not shown) [Compound 29] next?
result: 1000 to 10000 nM

query: Can you check CN1C(=O)CCC1(C)c1ccc2c(c1)nc(NC(=O)c1cccc(C(F)F)c1)n2CCCO (single isomer, unassigned) [Compound 31a] next?
result: 100 to 1000 nM
